Molecular target: Tyrosyl-DNA phosphodiesterase 2 (Homo sapiens, UniProt O95551)
Sequence (O95551 whole entry): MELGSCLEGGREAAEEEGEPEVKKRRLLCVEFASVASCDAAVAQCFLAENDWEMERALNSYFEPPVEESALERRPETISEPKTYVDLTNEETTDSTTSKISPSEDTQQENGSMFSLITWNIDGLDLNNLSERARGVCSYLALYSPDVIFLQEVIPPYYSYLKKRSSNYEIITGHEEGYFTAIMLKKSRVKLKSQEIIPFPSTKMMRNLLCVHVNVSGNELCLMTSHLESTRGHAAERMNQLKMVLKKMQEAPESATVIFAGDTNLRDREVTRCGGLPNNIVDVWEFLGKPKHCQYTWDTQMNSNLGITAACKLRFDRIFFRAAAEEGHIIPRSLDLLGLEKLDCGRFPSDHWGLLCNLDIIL
pIC50: −log10 of the molar value.
EXPERIMENTAL_ENDPOINT: pIC50

Query: Given the compound `CC[C@@]1(O)C(=O)OCc2c1cc1n(c2=O)Cc2cc3ccccc3nc2-1` , what is its reported pIC50?
Response: < 3.95

###

target: Tyrosyl-DNA phosphodiesterase 1 (Homo sapiens)
Sequence (Q9NUW8 whole entry): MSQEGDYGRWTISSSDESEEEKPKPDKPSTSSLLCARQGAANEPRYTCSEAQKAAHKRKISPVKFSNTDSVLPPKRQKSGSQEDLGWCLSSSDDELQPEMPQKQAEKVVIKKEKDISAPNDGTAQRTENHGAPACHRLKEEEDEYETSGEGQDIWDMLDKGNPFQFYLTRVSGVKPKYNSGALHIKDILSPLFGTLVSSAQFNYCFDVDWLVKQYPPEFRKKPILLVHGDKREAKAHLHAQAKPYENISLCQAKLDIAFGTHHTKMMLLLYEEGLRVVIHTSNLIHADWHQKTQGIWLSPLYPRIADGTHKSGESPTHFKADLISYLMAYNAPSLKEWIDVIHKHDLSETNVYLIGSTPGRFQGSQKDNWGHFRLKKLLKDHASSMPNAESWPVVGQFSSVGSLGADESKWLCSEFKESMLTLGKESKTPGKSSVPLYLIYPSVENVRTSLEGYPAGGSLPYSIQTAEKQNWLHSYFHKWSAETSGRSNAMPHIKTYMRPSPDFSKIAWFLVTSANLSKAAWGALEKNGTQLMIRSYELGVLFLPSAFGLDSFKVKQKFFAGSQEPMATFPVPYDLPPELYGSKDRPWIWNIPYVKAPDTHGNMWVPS
EXPERIMENTAL_ENDPOINT: IC50

Query: Given the molecule `CC[C@@]1(O)C(=O)OCc2c1cc1n(c2=O)Cc2cc3ccccc3nc2-1` , what is its reported IC50?
Response: > 111 µM
